target: T1, EGFRvIII extracellular domain (EGFR (1-29)-G-(298-645)-LESRGPF-Myc-NMHTG-6His) (human, UniProt P00533 298-641); experiment: SPR (Biacore), antibody captured via anti-human Fc, antigen injected
T1 construct: also called recombinant EGFRvIII; not shown: Myc tag
Catalogue of binders with associated koff
Give your result in s⁻¹ as a bare value.

binder | quantityUnit | koff
Antibody H (AbH) (antibody, V domains shown, Full length IgG1) VH: EVQLQESGPGLVKPSQTLSLTCTVSGYSIGKDFAWNWIRQPPGKGLEWMGYISYNGNTRYQPSLKSRITISRDTSKNQFFLKLNSVTAADTATYYCVTASRGLPYWGQGTLVTVSS VL: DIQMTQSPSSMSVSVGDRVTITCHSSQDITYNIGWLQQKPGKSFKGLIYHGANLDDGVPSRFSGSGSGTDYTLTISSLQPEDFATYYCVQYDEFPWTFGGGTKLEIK | s⁻¹ | 4.89e-05

Then this binder:
Just so you know, measured koff for Antibody J (AbJ) (antibody, V domains shown, Full length IgG1) VH: EVQLQESGPGLVKPSQTLSLTCTVSGYSIGKDFAWNWIRQPPGKGLEWMGYISYSGNTRYQPSLKSRITISRDTSKNQFFLKLNSVTAADTATYYCVTASRGLPYWGQGTLVTVSS VL: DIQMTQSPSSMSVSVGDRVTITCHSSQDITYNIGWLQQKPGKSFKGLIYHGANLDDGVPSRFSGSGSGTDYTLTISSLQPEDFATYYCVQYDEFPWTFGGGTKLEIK came out at 9.4e-05
